Numbers sourced from patent US20060004028A1.

reported.metric: melting point

[
  {
    "compound": "COc1ccc(C2NC(=O)c3ccc(Cl)c4c3N2CCC4=NO)cc1 (stereo not drawn) [Example 52]",
    "endpoint.value": "132.9 to 133.4 °C"
  },
  {
    "compound": "COc1ccc(C2NC(=O)c3cccc4c3N2CCC4=O)c(C)c1 (stereo not drawn) [Example 49]",
    "endpoint.value": "100.2 to 101.1 °C"
  },
  {
    "compound": "COc1cccc(C2NC(=O)c3cccc4c3N2CCC4=O)c1 (stereo not drawn) [Example 44]",
    "endpoint.value": "126.5 to 142.5 °C"
  },
  {
    "compound": "CN(C)c1ccc([C@@H]2NC(=O)c3cccc4c3N2CC[C@@H]4N)cc1 (racemic) [Example 129]",
    "endpoint.value": "237.8 to 239.7 °C"
  },
  {
    "compound": "COc1cc(C2NC(=O)c3cccc4c3N2CCC4=NO)cc(Br)c1OC (stereo not drawn) [Example 56]",
    "endpoint.value": "133.9 to 146.8 °C"
  },
  {
    "compound": "COc1cc(C2NC(=O)c3cccc4c3N2CCC4=O)ccc1F (stereo not drawn) [Example 36]",
    "endpoint.value": "171 to 172.9 °C"
  },
  {
    "compound": "COc1ccccc1C1NC(=O)c2cccc3c2N1CCC3=O (stereo not drawn) [Example 43]",
    "endpoint.value": "214.7 to 219.5 °C"
  },
  {
    "compound": "O=C1CCN2c3c1cccc3C(=O)NC2c1ccc(Br)cc1 (stereo not drawn) [Example 21]",
    "endpoint.value": "206.2 to 214 °C"
  },
  {
    "compound": "O=C1CCN2c3c1cccc3C(=O)NC2c1ccc([N+](=O)[O-])cc1 (stereo not drawn) [Example 17]",
    "endpoint.value": "198.8 to 209.3 °C"
  }
]
